Attribution: PubChem BioAssay (EPA / NIEHS)

run_description: Tanguay_ZF_120hpf_AXIS: Oregon State University Tanguay Lab 120 Hour Post-fertilization zebrafish Assay for Axial Malformation (AID 2284398)
Protocol: Tanguay_ZF_120hpf is a whole embryo, multiplexed endpoint assay using zebrafish larvae exposed for 120 hours post fertilization on a 96-well plate.Tanguay_ZF_120hpf_AXIS is one of one assay component(s) measured or calculated from the Tanguay_ZF_120hpf assay. It is designed to make measurements of zebrafish development as detected with brightfield microscopy of developing zebrafish embryos.Data from the assay component Tanguay_ZF_120hpf_AXIS was analyzed into 1 assay endpoints. […]
Activity calls are given as the source filed them. How the source made its calls: active means hit-call score of the fitted dose curve at least 0.9, where 1 is the maximum; inactive means score below 0.9.
The categories you may choose from are YES for active, NO for inactive

[
  {
    "cpd_smiles": "O=C(O)CCC(F)(F)C(F)(F)C(F)(F)C(F)(F)C(F)(F)F",
    "label_value": "NO"
  }
]

Which outcome was entered for the compound O=P(O)(O)CCC(F)(F)C(F)(F)C(F)(F)C(F)(F)C(F)(F)C(F)(F)C(F)(F)C(F)(F)F in this test?
NO

Which outcome was entered for the compound O=C(CC(=O)C(F)(F)C(F)(F)C(F)(F)F)c1cccs1 in this test?
NO

Which outcome was entered for the compound CN(CCO)S(=O)(=O)C(F)(F)C(F)(F)C(F)(F)C(F)(F)C(F)(F)C(F)(F)C(F)(F)C(F)(F)F in this test?
YES

Which outcome was entered for the compound O=P(O)(O)CCC(F)(F)C(F)(F)C(F)(F)C(F)(F)C(F)(F)C(F)(F)F in this test?
NO

Which outcome was entered for the compound C=CC(=O)OCCC(F)(F)C(F)(F)C(F)(F)C(F)(F)C(F)(F)C(F)(F)C(F)(F)C(F)(F)F in this test?
NO

Which outcome was entered for the compound O=C(O)C(F)(F)OC(F)(F)C(F)(F)OC(F)(F)C(F)(F)OC(F)(F)C(F)(F)C(F)(F)C(F)(F)F in this test?
NO
